target: T1, Recombinant human PDGF-C from R&D Systems (1687-CC/CF; Val235-Gly345) (human, UniProt Q9NRA1 235-345); assay: SPR (Biacore 3000), antibody amine-coupled to CM5 chip, PDGF-C injected, 1:1 fit
T1 construct: Used in SPR (Cat. 1687-CC/CF) and the PathHunter assay; also called PDGF-CC
T1 sequence (Q9NRA1 235-345 limits assumed, form in doubt): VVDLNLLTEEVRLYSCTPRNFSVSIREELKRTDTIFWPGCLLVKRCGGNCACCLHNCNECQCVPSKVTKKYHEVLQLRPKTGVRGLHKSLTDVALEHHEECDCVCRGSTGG
pKd: −log10 of the molar value.
Reported pKd by item:
READOUT TYPE: pKd

BINDER: anti-PDGF-C antibody 16B1 (antibody, IgG1, V domains shown, Mouse monoclonal from hybridoma, IgG1, kappa; VH same as 2D3, VL same as 5A2; also called mAb 16B1; hybridoma LMBP 9486CB) VH: EVQLVESGGDLVKPGGSLKLSCAASGFTFSNYGMSWVRQTPDKRLEWVATIGSGGSYTYYPDSVKGRFTISRDSAKNTLYLQMSSLKSEDTAMYYCARQAPLWDYSDYWGQGTTLTVSS VL: DVLMTQTPLSLPVSLGDQASISCRSNQSIVHSNGDTYLEWYLQKPGQSPKLLIYKVSNRFSGVPDRFSGSGSGTDFTLKISRVEAEDLGVYYCFQGSHVPPTFGGGTKLEIK
NUMERIC RESULT: 8.92
//
BINDER: anti-PDGF-C antibody 2D3 (antibody, IgG1, V domains shown, Mouse monoclonal from hybridoma, IgG1, kappa; also called mAb 2D3; hybridoma LMBP 9483CB) VH: EVQLVESGGDLVKPGGSLKLSCAASGFTFSNYGMSWVRQTPDKRLEWVATIGSGGSYTYYPDSVKGRFTISRDSAKNTLYLQMSSLKSEDTAMYYCARQAPLWDYSDYWGQGTTLTVSS VL: DVLMTQTPLSLPVSLGDQASISCRSNQTIVHSNGDTYLEWYLQKPGQSPNLLIYKVSNRFSGVPDRFSGSGSGTDFTLKISRVEAEDLGVYYCFQGSHVPPTFGGGTKLEIK
NUMERIC RESULT: 8.82
//
BINDER: anti-PDGF-C antibody 5A2 (antibody, IgG2b, V domains shown, Mouse monoclonal from hybridoma, IgG2b, kappa; also called mAb 5A2; hybridoma LMBP 9484CB) VH: EVQLVESGGDLVKPGGSLKLSCAASGFTFSNYGMSWVRQTPDKRLEWVATIGSGGHYTYYPDSVKGRFTISRDSAKSTLYLQMSSLKSEDTAIYYCARQAPLWDCSDYWGQGTTLTVSS VL: DVLMTQTPLSLPVSLGDQASISCRSNQSIVHSNGDTYLEWYLQKPGQSPKLLIYKVSNRFSGVPDRFSGSGSGTDFTLKISRVEAEDLGVYYCFQGSHVPPTFGGGTKLEIK
NUMERIC RESULT: 8.30
//
BINDER: anti-PDGF-C antibody 5H7 (antibody, IgG1, V domains shown, Mouse monoclonal from hybridoma, IgG1, kappa; also called mAb 5H7; hybridoma LMBP 9485CB) VH: EVQLVESGGDLVKPGGSLKLSCAASGFTFSSYGMSWVRQTPDKRLEWVATIGYGGSFTYYPDSMKGRFTISRDNAKNTLFLQMSSLKSEDTAIYYCVRQAPLWDYFDYWGQGTTLTVSS VL: DVLMTQTPLSLPVSLGDQASISCRSSQTIVHSDGTTYLEWYLQKAGQSPKLLIYKVSNRFSGVPDRFSGSGSGTDFTLKISRVEAEDLGVYYCFQGSHVPPTFGGGTKLEIK
NUMERIC RESULT: 8.60
//
BINDER: anti-PDGF-C antibody 29H1 (antibody, IgG1, V domains shown, Mouse monoclonal from hybridoma, IgG1, kappa; also called mAb 29H1; hybridoma LMBP 9487CB) VH: EVQLVESGGDLVKPGGSLKLSCAASGFTFSNYGMSWVRQTPDKRLEWVATIGSGGHYTYYPDSVKGRFTISRDSAKSTLYLQMSSLRSDDTAIYYCARQAPLWDCSDYWGQGTTLTVSS VL: DVLMTQTPLSLPVSLGDQASISCRSNQSIVHSNGDTYLEWYLQKPGQSPNLLIYKVSNRFSGVPDRFSGSGSGTDFTLKISRVEAEDLGVYYCFQGSHVPPTFGGGTKLEIK
NUMERIC RESULT: 8.82
